- EXPERIMENT: Inhibition of full-length wild-type HCV NS3 protease
- Set-up: species or system Hepacivirus hominis
pKi: −log10 of the molar value.
QUANTITY_KIND: pKi

>>> quantitative_result("CC(C)(C)NC(=O)Nc1nc(Cl)c(Cc2cccc(-c3cccnc3)c2)n(CC(=O)Nc2ccccc2C(=O)NS(=O)(=O)c2ccc(C(F)(F)F)cc2)c1=O")
6.09
>>> quantitative_result("CC(C)(C)NC(=O)Nc1nc(Cl)c(Cc2ccccc2)n(C(C(=O)Nc2ccccc2C(=O)NS(=O)(=O)c2ccc(C(F)(F)F)cc2)c2ccccc2)c1=O (stereo not drawn)")
6.15
>>> quantitative_result("COc1ccc2c(O[C@@H]3C[C@H]4C(=O)N[C@]5(C(=O)O)C[C@H]5/C=C\\CCCCC[C@H](NC(=O)OC5CCCC5)C(=O)N4C3)cc(-c3csc(NC(C)C)n3)nc2c1 [CILUPREVIR]")
10.05

Ref: ChEMBL document CHEMBL3124833
